SYSTEM: T1, Fus1, P11710
T1 sequence (P11710 432-512, looked up): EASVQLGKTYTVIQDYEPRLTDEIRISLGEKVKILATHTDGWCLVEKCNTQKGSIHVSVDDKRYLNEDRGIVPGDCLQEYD
METHOD: SPOT array
APPLIED_CONDITIONS: median of control spots 1200
In this section we review reported SPOT intensity values for a set of binders.
Returns: the value as a bare number; no unit string appended.

LSKRLPLRFPEHTSS: 1
FTLPPPPPPPGLDEL: 0
NRARYLPQNPDIIAG: 0
AHFQPQRTAPKPPIS: 0
ISPPASPPPEFDFSK: 0
AGKRRLPLVRFKASD: 23

Continue with the next binder.
*Q* Looking for the measured SPOT intensity of ILARAILTIPRVLDK , can you help?
*A* 9
